test system: guinea pig parenchymal strip (immunological release of SRS-A); experiment: guinea pig parenchymal strip: prevention of the contraction of guinea pig parenchymal tissue by immunological release of SRS-A; assay type: cell-based; conditions: Cavia porcellus; egg albumin challenge of sensitized guinea pig lung strip; chlorpheniramine (10^-4 M), indomethacin (10^-5 M), test compound 30 minutes prior
I'd be grateful if you could share measured IC50 for these entries.
Numbers only, in µM.

compound	endpoint_result
CCCCCCCCCCC[C@H](O)[C@@H](CCCCC(=O)OC)SCCC(=O)OC (relative stereo) [Example 4]	10

Now take the following compound into account.
Qu. Name the reported IC50 value associated with the compound CCCCCCCCCCC[C@H](O)[C@H](CCCCC(=O)O)SCCC(=O)O (relative stereo) [Example 2]
Ans. 80

The origin of these recorded values is patent US4461775A.
